test system: NCI-H522 lung; test: NCI tumour cell line growth inhibition, 48 h
Provide the reported TGI of each item.

// batch mode: one TGI value per listed entry
1. O=C1C(=C2SC(c3ccccc3)(c3ccccc3)c3ccccc32)C(=O)c2ccccc21
2. CCc1cccc(C)c1NC(=O)CCc1nnc(SC)o1
3. COc1ccc(NC=O)c(C(=O)CCNC(C)=O)c1
4. CCOP(=O)(OCC)/C(C#N)=C/c1nccn1C
5. COc1cc2c3c(c1OC)-c1ccccc1C(C(O)c1ccccc1)C3N(C)CC2 (stereo unspecified)
6. COc1ccc2cc(C(=O)NCCCNC(=O)c3ccc4c(OC)c(OC)ccc4c3)ccc2c1OC
7. COc1ccc(OC)c(CCc2cc(OC)ccc2OC)c1

output:
> 100 µM
> 100 µM
> 100 µM
> 100 µM
35.9 µM
> 100 µM
> 9.66 µM

Answer for every listed entry: what is its TGI? The entries follow.
1. Cc1cc(NS(=O)(=O)c2ccc(NC(=O)c3ccc(Cl)c4c(Nc5ccc(S(N)(=O)=O)cc5)c5ccccc5nc34)cc2)no1
2. CCCCCCCCCCCCCC(=S)N/C=C/OC
3. CCO/C(O)=C(/C(=N)N1CCOCC1)C(=O)Nc1cccc(Cl)c1
4. Cc1oc2nc[nH]c(=O)c2c1C(=O)/C=C/c1ccc(Br)cc1

output:
["23.7 µM", "46.3 µM", "> 100 µM", "5.76 µM"]

###

system: KM12 colon; experiment: NCI tumour cell line growth inhibition, 48 h
For each entry below, report its TGI value.
Numbers only, in µM.

input: Which TGI reading was recorded for the compound CC(C)=C[C@@H]1C[C@H](C)[C@H]2CC[C@H](C)c3c(O)c(OC4OCC(O)C(O)C4O)c(C)c1c32 (stereo partly drawn) ?
output: 25.3

input: Same lookup for Cc1cc(NS(=O)(=O)c2ccc(NC(=O)c3ccc(Cl)c4c(Nc5ccc(S(N)(=O)=O)cc5)c5ccccc5nc34)cc2)no1 , please.
output: 37.8

input: Similarly, CC/C=C/c1cc2c(c3[nH]ccc13)[C@@H](C)CC2C (stereo partly drawn) (tested in a mixture with another compound) ?
output: 32.2

input: Try this compound next: CSc1cc(Cl)c(C)cc1S(=O)(=O)NC(=O)Nc1ccc(Cl)cc1
output: 80.8

The record that follows has no TGI shown yet.
input: // returns reported TGI for input Cc1nc2c(nc1C)C(=O)C1=C(C2=O)C2C=CC1CC2
output: 33.3

###

test system: NCI/ADR-RES ovarian; test: NCI tumour cell line growth inhibition, 48 h
Label 1.0 when TGI >= 40 µM; otherwise 0.0.

# count of solved cases: 5
input: Does TGI meet or surpass 40 µM for Cc1n(Cc2ccc3ccccc3c2)c2ccccc2[n+]1Cc1ccc2ccccc2c1 ?
output: 1.0

input: What about O=C(O)c1c[nH]c2cc(OCc3ccccc3)ccc2c1=O ?
output: 0.0

input: Moving on to the next compound: CC(C)CNC(=O)c1ccc(NC(=O)N(CC(C)C)C(=O)c2ccc(N)c(OCCCN)c2)c(OCCCN=C(N)N)c1
output: 1.0

input: # iterate: Cc1ccc2cc3cccc(C(=O)NCCN(C)C)c3nc2c1
output: 0.0

input: Another compound to check: CSc1cc(Cl)c(C)cc1S(=O)(=O)NC(=O)Nc1ccc(Cl)cc1
output: 1.0

For the next question, use this compound.
input: Does the reported TGI for CN(C)c1ccc(N=Nc2ccc(Br)cn2)c(O)c1 fall at or above the 40 µM mark?
output: 0.0

###

tested on: ACHN renal; assay: NCI tumour cell line growth inhibition, 48 h
Field: GI50. Provide a value for each of the compounds that follow.

Please state, for each entry, its recorded GI50.
1. CC1CN=C(c2cccc(-c3ccc(-c4ccccc4)o3)c2)N1 (stereo not drawn)
2. CCN1CCN(Cc2ccc(NC(=O)c3nc4ccc5[nH]ncc5c4c4c3CCCC4)cc2C(F)(F)F)CC1
3. CN1CCN(Cc2ccc(NC(=O)c3cncc(C#Cc4cnc5ccc(Cl)nn45)c3)cc2C(F)(F)F)CC1

output:
1850 nM
861 nM
769 nM

###

Provide the recorded TGI for the entries that follow.
tested on: COLO 205 colon; assay: NCI tumour cell line growth inhibition, 48 h

Example results:
input: Find the recorded TGI belonging to CN1CCN(Cc2ccc(NC(=O)c3cncc(C#Cc4cnc5ccc(Cl)nn45)c3)cc2C(F)(F)F)CC1 and report it.
output: 2.08 µM

input: Also check CC(=O)OC(OC(C)=O)c1ncccc1C(=O)OC(C)C
output: > 100 µM

input: Same read-out for O=c1ccc2[n+]([O-])c3ccc(O)cc3oc-2c1 ?
output: 30.1 µM

input: Similarly, CCNC(=O)OCC1C2=C(C(=O)C(C)=C(N)C2=O)N2CC3C(N3C)C12OC (stereo unspecified) ?
output: > 100 µM

input: Note, next up: CCCCc1ccc(N2C(=O)c3cc([N+](=O)[O-])cnc3S2(=O)=O)cc1
output: > 100 µM

Batch: TGI for all items listed.
1. COc1ccc2[nH]c(Cl)c(/C=C3/C(=O)N(c4ccccc4)c4ccccc43)c2c1
2. COc1ccc(N2CCOCC2)cc1
3. O=C(O)CCC(=O)N1C/C(=C\c2ccccc2)C(=O)/C(=C/c2ccccc2)C1
4. COC(=O)[C@]12CC[C@@H](C(=O)/C=C/c3cccnc3)[C@@H]1[C@H]1CC[C@@H]3[C@@]4(C)C/C(=C/c5cccnc5)C(=O)C(C)(C)[C@@H]4CC[C@@]3(C)[C@]1(C)CC2
5. CCC1(CN(C)C)CC/C(=C\c2ccc(OC)cc2)C1=O (stereo unspecified)
6. NCC(O)CSP(=O)(O)O (stereo unspecified)
7. [O-][n+]1c2cc3c(cc2[n+]([O-])c2c(O)cccc21)CN(CCN1CCOCC1)C3
8. FC(F)(F)c1ccc(C2=N/S(c3ccccc3)=N\C(c3ccc(C(F)(F)F)cc3)=N/S(c3ccccc3)=N\2)cc1 (stereo unspecified)

output:
["5.89 µM", "> 100 µM", "11.3 µM", "1.35 µM", "> 100 µM", "> 100 µM", "30.5 µM", "> 100 µM"]

###

system: SNB-75 CNS; experiment: NCI tumour cell line growth inhibition, 48 h; in the data active = GI50 below about 0.43 µM; inactive = the rest
// one of active, inactive, no free text

input: Record request — test call for Cc1oc2nc[nH]c(=O)c2c1C(=O)/C=C/c1ccc(Br)cc1
output: inactive

More entries:
input: Can you look up the reported call for CC(C)CC(=O)[O-].CC(C)CC(=O)[O-].N.N.N.N.[Co+3].[O-][Cl+3]([O-])([O-])O.[O-][Cl+3]([O-])([O-])[O-] for me?
output: inactive

input: Same question, Nc1cc2ccccc2c(O)c1O this time
output: inactive

input: Please give the result for COC(=O)CCC1=C(C)C(C)=N/C1=C\c1[nH]c(-c2ccc[nH]2)cc1OC too.
output: inactive

input: Again, but for c1ccc(-c2cccc(-c3ccccn3)n2)nc1
output: active

###

system: SNB-19 CNS; test: NCI tumour cell line growth inhibition, 48 h
reportedProperty: log10 TGI (log10 of the value in µM)
Remember, log10 of TGI, in µM.

For each entry beneath this line, provide reported log10 TGI.
1. CCN1CCN(Cc2ccc(NC(=O)c3nc4ccc5[nH]ncc5c4c4c3CCCC4)cc2C(F)(F)F)CC1
2. Cc1nc(Nc2ccc(Cl)cc2)sc1C(=O)NNC(=O)C(=O)NN

output:
1. 0.30
2. 1.67

Working through the 4 compounds below one at a time, give log10 TGI for each.
1. COc1ccc(N2C(=O)C3c4[nH]c5c(C)cccc5c4C4CCC(c5ccccc5)CC4C3C2=O)cc1 (stereo unspecified)
2. CNCCC/C=C1\c2cc3c(cc2-c2c1c1cc(OC)c(OC)cc1c(=O)n2C)OCO3
3. Cn1c2c(c3ccccc31)CCN(CCCN1CCN(c3cccc(Cl)c3)CC1)C2=O
4. O=c1oc2ccccc2c(O)c1/C=N\c1nc(-c2ccc(O)c(O)c2)cs1

output:
[1.88, 1.39, 1.94, 1.59]

###

system: MCF7 breast; assay: NCI tumour cell line growth inhibition, 48 h
reportedProperty: TGI

# count of solved cases: 9
input: Form field: TGI recorded for COC(=O)CCC(C)[C@H]1CCC2C3C(C[C@H](OC(C)=O)[C@@]21C)[C@@]1(C)CCC2(C[C@H]1C[C@H]3OC(C)=O)OOC1(CCC(C(C)(C)C)CC1)OO2 (stereo not given in full) with MCF7 breast (enter value)
output: > 100 µM

input: Then this compound: CC1CN=C(c2cccc(-c3ccc(-c4ccccc4)o3)c2)N1 (stereo not given)
output: 3.59 µM

input: Would you mind doing CN(C)CCNC(=O)c1cccc(NC(=O)c2ccccc2)c1[N+](=O)[O-] as well?
output: > 100 µM

input: Also need CN1C(=O)C23CC4(C56CC78SSC(CO)(C(=O)N7C5Nc5ccccc56)N(C)C8=O)c5ccccc5NC4N2C(=O)C1(CO)SS3 (stereo not given) , thanks.
output: 0.122 µM

input: And for O=c1[nH]nc(NCCc2ccccc2)c2nnn(Cc3ccccc3)c12 ?
output: > 100 µM

input: Continue with COc1nc(=O)n(C2CC(F)C(CO)O2)cc1C (stereo not given)
output: > 100 µM

input: Let us now turn to S=C1Cc2cc3ccccc3nc2-c2ccccc2N1
output: > 79 µM

input: Entry to check: Cc1ccc(-c2cc(-c3cc(-c4ccc(C)cc4C)n[nH]3)[nH]n2)c(C)c1
output: 38.8 µM

input: Further, for Nc1ncnc2c1ncn2C1OC(CO)C2OC21 (stereo not given) ?
output: > 100 µM

Next:
input: Return TGI measured with MCF7 breast given this compound: Cc1oc2nc[nH]c(=O)c2c1C(=O)/C=C/c1ccc(Br)cc1
output: 11.5 µM
